molecular target: D1 (Rattus norvegicus); construct: from tissue; host or cells: male Wistar rat striatum, membrane fraction; test: Receptor binding assay, D1 (3H-SCH 23390); parameters: species or system male Wistar rat; settings: 3H-SCH 23390 0.78 Nm, striatum
Sequence (P18901 whole entry): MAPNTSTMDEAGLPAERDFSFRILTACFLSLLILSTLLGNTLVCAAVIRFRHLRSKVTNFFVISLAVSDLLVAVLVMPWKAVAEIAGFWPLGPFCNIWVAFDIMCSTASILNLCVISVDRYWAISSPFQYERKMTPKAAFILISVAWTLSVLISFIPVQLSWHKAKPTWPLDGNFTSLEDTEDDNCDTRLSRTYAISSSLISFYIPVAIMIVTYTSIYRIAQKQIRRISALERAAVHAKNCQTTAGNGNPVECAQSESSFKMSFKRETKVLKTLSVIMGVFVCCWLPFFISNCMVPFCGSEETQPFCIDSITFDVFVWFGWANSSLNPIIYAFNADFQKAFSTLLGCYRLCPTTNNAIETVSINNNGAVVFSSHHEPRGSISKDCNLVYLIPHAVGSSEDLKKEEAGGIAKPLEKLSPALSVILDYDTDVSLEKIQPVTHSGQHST
ASSAY READOUT: pKi
pKi (log units): -log10 of the concentration in mol/L.

Prompt: Recorded pKi of CNCCO[C@]1(c2ccccc2)C[C@H]2CC[C@]1(C)C2(C)C , please.
Response: 5.00

* * *

molecular target: 5-HT2A (Rattus norvegicus)
Sequence (P14842 whole entry): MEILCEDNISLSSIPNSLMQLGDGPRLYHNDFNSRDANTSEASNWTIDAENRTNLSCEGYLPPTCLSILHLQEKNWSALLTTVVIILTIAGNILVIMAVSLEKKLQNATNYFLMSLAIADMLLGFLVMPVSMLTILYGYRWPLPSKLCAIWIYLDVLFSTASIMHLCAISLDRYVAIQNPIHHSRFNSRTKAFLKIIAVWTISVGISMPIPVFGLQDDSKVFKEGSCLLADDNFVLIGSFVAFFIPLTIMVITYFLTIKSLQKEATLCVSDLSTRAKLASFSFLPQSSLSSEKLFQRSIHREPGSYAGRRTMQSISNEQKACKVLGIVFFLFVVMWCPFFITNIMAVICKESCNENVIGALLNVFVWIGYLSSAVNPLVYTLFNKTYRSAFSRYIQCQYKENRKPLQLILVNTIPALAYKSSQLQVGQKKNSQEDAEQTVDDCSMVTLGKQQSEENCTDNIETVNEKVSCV
ASSAY READOUT: Ki (nM)
Only the number, expressed in nM, is required.

Prompt: Which Ki reading was recorded for the compound CN(C)CCO[C@]1(c2ccccc2)C[C@H]2CC[C@]1(C)C2(C)C [Compound B, reference compound] ?
Response: 35

* * *

molecular target: Sigma (Rattus norvegicus)
Sequence (Q9R0C9 whole entry): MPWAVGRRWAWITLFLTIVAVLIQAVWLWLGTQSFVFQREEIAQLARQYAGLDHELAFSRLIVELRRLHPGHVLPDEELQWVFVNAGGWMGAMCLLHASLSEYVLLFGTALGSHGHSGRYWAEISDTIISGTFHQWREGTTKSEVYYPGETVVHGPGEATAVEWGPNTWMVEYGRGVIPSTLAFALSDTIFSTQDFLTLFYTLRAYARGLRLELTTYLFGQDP
ASSAY READOUT: pKi
In textbook form, pKi equals minus log to base ten of the concentration in mol/L.

Prompt: What value of pKi on Sigma (Rattus norvegicus) does CN(C)CCO[C@]1(c2ccccc2)C[C@H]2CC[C@]1(C)C2(C)C [Compound B, reference compound] have?
Response: 7.28

* * *

Each entry below lists one item and its recorded Ki value.
Target: 5-HT2C (Sus scrofa, UniProt K7GSR7)
Construct: from tissue; host or cells: porcine choroid plexus
Sequence (K7GSR7 1-457): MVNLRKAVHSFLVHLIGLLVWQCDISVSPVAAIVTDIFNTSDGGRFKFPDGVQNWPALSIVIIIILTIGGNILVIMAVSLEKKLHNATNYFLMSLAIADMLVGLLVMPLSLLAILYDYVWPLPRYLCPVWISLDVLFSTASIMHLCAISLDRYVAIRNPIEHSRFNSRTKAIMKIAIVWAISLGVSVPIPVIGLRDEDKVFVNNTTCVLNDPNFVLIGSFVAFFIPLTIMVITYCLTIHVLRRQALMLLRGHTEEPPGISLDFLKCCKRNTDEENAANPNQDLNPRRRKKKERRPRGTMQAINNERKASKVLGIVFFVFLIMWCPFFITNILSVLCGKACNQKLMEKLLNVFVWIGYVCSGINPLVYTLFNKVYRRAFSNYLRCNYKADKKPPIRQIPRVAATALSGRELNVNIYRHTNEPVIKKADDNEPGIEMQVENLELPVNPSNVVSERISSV
Assay: biochemical
Assay type: binding, porcine
Experimental: The different brain regions of 120-200 g male Wistar rats were used for receptor binding assays except for 5-HT2c receptors where binding studies were performed on porcine choroid plexus. Protein content of the membrane fraction was determined as described by Lowry [Lowry, O. H., Rosebrough, M. J., Farr, A. L. and Randall, R. Y.: J. Biol. Chem., 193: 265-275, 1951]. 5-HT2C ^3 H-mesulergin choroid mianserin Pazos, A. et 1.0 nM plexus (1 μM) al. Eur. J.
Reply numerically in nM, unit not repeated.

| MOLECULE | Ki, nM |
| --- | --- |
| CNCCO[C@]1(c2ccccc2)C[C@H]2CC[C@]1(C)C2(C)C | 20 |

Now, please, on to the next molecule.
Prompt: Return reported Ki; argument: CN(C)CCO[C@]1(c2ccccc2)C[C@H]2CC[C@]1(C)C2(C)C [Compound B, reference compound]
Response: 9

* * *

target: D2 (Rattus norvegicus, UniProt P61169); assay: Receptor binding assay, D2 (3H-spiperone); conditions: 3H-spiperone 0.5 nM, striatum
Sequence (P61169 whole entry): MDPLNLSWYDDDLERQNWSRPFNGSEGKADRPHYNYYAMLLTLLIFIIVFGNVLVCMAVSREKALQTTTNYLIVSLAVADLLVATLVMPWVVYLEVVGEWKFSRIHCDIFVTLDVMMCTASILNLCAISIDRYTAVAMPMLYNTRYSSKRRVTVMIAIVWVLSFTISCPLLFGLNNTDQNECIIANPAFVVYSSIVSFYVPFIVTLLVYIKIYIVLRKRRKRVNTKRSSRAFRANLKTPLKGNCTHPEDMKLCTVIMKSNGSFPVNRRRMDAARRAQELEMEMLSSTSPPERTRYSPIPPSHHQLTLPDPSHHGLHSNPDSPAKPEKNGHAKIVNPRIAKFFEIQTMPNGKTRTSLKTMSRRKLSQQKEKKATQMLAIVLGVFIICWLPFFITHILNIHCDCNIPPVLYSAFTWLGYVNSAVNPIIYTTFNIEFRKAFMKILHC
pKi: −log10 of the molar value.
Recorded pKi, one value per entry.

| COMPOUND | ASSAY READOUT | REPORTED |
| --- | --- | --- |
| CN(C)CCO[C@]1(c2ccccc2)C[C@H]2CC[C@]1(C)C2(C)C [Compound B, reference compound] | pKi | < 7.00 |

Turning now to a further record.
Prompt: Given the compound CNCCO[C@]1(c2ccccc2)C[C@H]2CC[C@]1(C)C2(C)C , what is its reported pKi?
Response: < 7.00
